Test Readout: melting point

Known results for compounds:
- Compound: "CCC(N)(CO)CS(=O)(=O)c1ccccc1C(=O)c1ccccc1 (configuration not stated)"
  melting point: "150 to 151 °C"
- Compound: "CNC(Cc1cc(Cl)ccc1N)c1sccc1C (configuration not stated)"
  melting point: "59 to 61 °C"
- Compound: "CCOc1ccc(C(=O)NCc2ccc3c(c2)C(=O)N(C2(C)CCC(=O)NC2=O)C3=O)nc1 (configuration not stated)"
  melting point: "145 to 147 °C"
- Compound: "CSc1nc(-c2ccc(C#N)cc2)cn1-c1ccc(Br)cc1"
  melting point: "188 to 190 °C"
- Compound: "O=C(O)CCCCCCCCCCCCCCCCCCCO"
  melting point: "86 °C"
- Compound: "COc1cccc(C(=O)NCC(=O)N2c3ccccc3N(Cc3ccccc3)C(=O)[C@H]3CCC[C@H]32)c1 (relative stereo)"
  melting point: "160 to 161 °C"

From here, focus on the item given below.
Record summary for Cc1ccc(N2C(=O)C(O)=C(C(=O)c3ccc(C(F)(F)F)nc3)C2c2ccc(OC(F)(F)F)cc2)nn1 (configuration not stated) : reported melting point = 172 °C
